The origin of these recorded values is paper PMC6325200.

System: E. coli ATCC 25922
Test: microbe, parasite or virus in culture
Details: Escherichia coli, ATCC25922, Corning TC; MH; 2% LS; n = 2
readout label: MIC (µg/mL)
Expressed in µg/mL, but write only the number.

Prompt: GET /values?readout=MIC&item= "CC1(C)S[C@@H]2[C@H](NC(=O)Cc3ccccc3)C(=O)N2[C@H]1C(=O)O"
Response: 64

Prompt: GET /values?readout=MIC&item= "CO[C@H]1/C=C/O[C@@]2(C)Oc3c(C)c(O)c4c(O)c(c(/C=N/N5CCN(C)CC5)c(O)c4c3C2=O)NC(=O)/C(C)=C\C=C\[C@H](C)[C@H](O)[C@@H](C)[C@@H](O)[C@@H](C)[C@H](OC(C)=O)[C@@H]1C"
Response: 8

* * *

System: E. coli ATCC 25922
Test: microbe, parasite or virus in culture
Settings: Escherichia coli, ATCC25922, 24 h, Trek PS; MH + 2% LHB; 50% HS; n = 2
readout label: MIC

Prompt: GET /values?readout=MIC&item= O=C(O)c1cn(C2CC2)c2cc(N3CCNCC3)c(F)cc2c1=O [Ciprofloxacin, ciprofloxacin]
Response: ≤ 0.03 µg/mL

Prompt: GET /values?readout=MIC&item= Cc1onc(-c2ccccc2)c1C(=O)N[C@@H]1C(=O)N2[C@@H]1SC(C)(C)[C@@H]2C(=O)O [Oxacillin, oxacillin]
Response: > 64 µg/mL

Prompt: GET /values?readout=MIC&item= CC1(C)S[C@@H]2[C@H](NC(=O)Cc3ccccc3)C(=O)N2[C@H]1C(=O)O [Penicillin G, penicillin G]
Response: 32 µg/mL

Prompt: GET /values?readout=MIC&item= COc1cc(Cc2cnc(N)nc2N)cc(OC)c1OC [Trimethoprim, trimethoprim]
Response: 1 µg/mL

Prompt: GET /values?readout=MIC&item= CO[C@H]1/C=C/O[C@@]2(C)Oc3c(C)c(O)c4c(O)c(c(/C=N/N5CCN(C)CC5)c(O)c4c3C2=O)NC(=O)/C(C)=C\C=C\[C@H](C)[C@H](O)[C@@H](C)[C@@H](O)[C@@H](C)[C@H](OC(C)=O)[C@@H]1C [Rifampin, rifampin]
Response: 4 µg/mL

* * *

System: E. coli ATCC 25922
Test: microbe, parasite or virus in culture
Conditions: Corning TC plate; MHB −T80, no additive; n = 2
Where a SMILES comes first, the peptide text is derived from it. Bridges are numbered along the chain shown (N, C = ends). [ ]: non-standard residue; d: D form. The star is where a group is joined. X1 = CC[C@H](C)CCCCC(=O)*; Dab = NCC[C@H](N)C(=O)O
Exercise: for every item that follows, state its recorded MIC.

Prompt: GET /values?readout=MIC&item= CC[C@H](C)CCCCC(=O)N[C@@H](CCN)C(=O)N[C@H](C(=O)N[C@@H](CCN)C(=O)N[C@H]1CCNC(=O)[C@H]([C@@H](C)O)NC(=O)[C@H](CCN)NC(=O)[C@H](CCN)NC(=O)[C@H](CC(C)C)NC(=O)[C@@H](Cc2ccccc2)NC(=O)[C@H](CCN)NC1=O)[C@@H](C)O [Polymyxin B, polymyxin B] (X1-[Dab]T[Dab][Dab][Dab][dF]L[Dab][Dab]T; lactam 4-C (inferred); N-terminus assumed)
Response: 1 to 2 µg/mL

Prompt: GET /values?readout=MIC&item= "COc1cc(Cc2cnc(N)nc2N)cc(OC)c1OC"
Response: 0.25 to 0.5 µg/mL

Prompt: GET /values?readout=MIC&item= "Cc1onc(-c2ccccc2)c1C(=O)N[C@@H]1C(=O)N2[C@@H]1SC(C)(C)[C@@H]2C(=O)O"
Response: > 64 µg/mL

Prompt: GET /values?readout=MIC&item= "CO[C@H]1/C=C/O[C@@]2(C)Oc3c(C)c(O)c4c(O)c(c(/C=N/N5CCN(C)CC5)c(O)c4c3C2=O)NC(=O)/C(C)=C\C=C\[C@H](C)[C@H](O)[C@@H](C)[C@@H](O)[C@@H](C)[C@H](OC(C)=O)[C@@H]1C"
Response: 4 to 8 µg/mL

Prompt: GET /values?readout=MIC&item= CC[C@H](C)CCCCC(=O)N[C@@H](CCN)C(=O)N[C@H](C(=O)N[C@@H](CCN)C(=O)N[C@H]1CCNC(=O)[C@H]([C@@H](C)O)NC(=O)[C@H](CCN)NC(=O)[C@H](CCN)NC(=O)[C@H](CC(C)C)NC(=O)[C@@H](CC(C)C)NC(=O)[C@H](CCN)NC1=O)[C@@H](C)O [Colistin, colistin] (X1-[Dab]T[Dab][Dab][Dab][dL]L[Dab][Dab]T; lactam 4-C (inferred); N-terminus assumed)
Response: 0.5 to 1 µg/mL
